Target: Nuclear receptor ROR-gamma (Mus musculus)
Assay: qHTS for inhibitors of ROR gamma transcriptional activity; further: nearly all actives have a fitted effect of over 60% in size
Conditions: Drosophila S2 Gal4-RORgamma UAS-luciferase reporter, 20 h; series mostly up to 53.6 µM
Hit rate of the full screen: of about 310,000 compounds, about 17,000 (5.5%) were called active. Roughly 11% stayed inconclusive and do not appear here. The call rests on the fitted dose curve; in most records, active means well fitted inhibition curve with a large enough effect; inconclusive means small, poorly fitted or top-dose-only effect, or effect the other way; inactive means no such curve, though single readings can be large or run the other way. Only a selection was taken, and actives are over-represented in it overall.
Outcome codes: active, inactive

{"columns": ["Compound", "Group label"],
 "data": [
  ["CCOC(=O)C(C)Sc1nc2ccccc2c(=O)n1CC1CCCCC1 (stereo unspecified)", "inactive"],
  ["O=c1c2ccccc2nc2n1C1(CCCCC1)Cc1ccccc1-2", "inactive"],
  ["CN(c1ccc2nc3ccccc3c(=O)n2n1)C1CCCCC1", "active"],
  ["Cc1ccc(C(CNC(=O)Nc2cccc(C)c2)N2CCN(C)CC2)cc1 (stereo unspecified)", "inactive"],
  ["O=C(NCCCn1ccnc1)c1cc(Br)c(Br)s1", "inactive"],
  ["CC(C)CC(CCc1ccccc1)OS(N)(=O)=O (stereo unspecified)", "inactive"]
]}

----------
Biological target: Nuclear receptor ROR-gamma (Mus musculus) (UniProt P51450)
Sequence (P51450 whole entry, looked up): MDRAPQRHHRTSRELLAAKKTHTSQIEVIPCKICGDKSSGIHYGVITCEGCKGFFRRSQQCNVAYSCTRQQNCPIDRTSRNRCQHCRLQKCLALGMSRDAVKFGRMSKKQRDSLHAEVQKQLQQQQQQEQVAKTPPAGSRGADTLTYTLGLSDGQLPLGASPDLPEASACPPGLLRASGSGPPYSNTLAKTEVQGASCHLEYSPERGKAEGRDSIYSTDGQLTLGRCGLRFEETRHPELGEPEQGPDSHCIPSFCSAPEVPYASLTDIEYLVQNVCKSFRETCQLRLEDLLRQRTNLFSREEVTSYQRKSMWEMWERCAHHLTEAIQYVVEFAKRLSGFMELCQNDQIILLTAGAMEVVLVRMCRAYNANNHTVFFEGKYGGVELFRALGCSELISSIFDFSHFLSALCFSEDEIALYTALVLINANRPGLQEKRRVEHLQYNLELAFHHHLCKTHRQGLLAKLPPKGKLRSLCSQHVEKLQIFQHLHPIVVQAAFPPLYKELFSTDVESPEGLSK
Experiment: qHTS for inhibitors of ROR gamma transcriptional activity; further: nearly all actives have a fitted effect of over 60% in size
Details: Drosophila S2 Gal4-RORgamma UAS-luciferase reporter, 20 h; series mostly up to 53.6 µM
Out of some 310,000 compounds screened, about 17,000 (5.5%) were called active. About 11% were inconclusive and are not listed. The call rests on the fitted dose curve; in most records, active means well fitted inhibition curve with a large enough effect; inconclusive means small, poorly fitted or top-dose-only effect, or effect the other way; inactive means no such curve, though single readings can be large or run the other way. The full list was thinned out, with actives kept by preference.
Outcome codes: YES = active, NO = inactive

{"columns": ["Molecule", "Group label"],
 "data": [
  ["C=CCn1c(SCC(=O)CC(=O)OCC)nc2cc(C(=O)N3CCC(C(N)=O)CC3)ccc2c1=O", "NO"],
  ["O=C(C1CCN(Cc2ccc(Cl)cc2)CC1)N1CCN(Cc2ccc3c(c2)OCO3)CC1", "NO"],
  ["O=C(N/N=C/c1cccc(OC(=O)c2ccc([N+](=O)[O-])cc2)c1)c1cccnc1", "NO"],
  ["O=C(CCC(=O)Nc1ccccc1)N/N=C/c1ccccc1F", "NO"],
  ["Brc1ccc(OCCn2ccnc2)cc1", "NO"],
  ["O=C(CCn1nnc2ccccc21)OCC(=O)c1ccc([N+](=O)[O-])cc1", "NO"],
  ["CC(C)(C)n1nnnc1C(c1ccc2ncccc2c1)N1CCSCC1 (stereo not given)", "YES"],
  ["COc1cc(/C=N/NC(=O)c2cccnc2)ccc1OC(=O)c1cccc(Br)c1", "YES"],
  ["O=C(CCCCCNC(=O)c1ccccc1)N/N=C/c1ccccc1", "NO"],
  ["COc1ccccc1NC(=O)c1ccc(N2CC3CC(C2)c2cccc(=O)n2C3)c(NC(=O)c2cccnc2)c1 (stereo not given)", "NO"]
]}

----------
Molecular target: Nuclear receptor ROR-gamma (Mus musculus) (UniProt P51450)
Test: qHTS for inhibitors of ROR gamma transcriptional activity; further: nearly all actives have a fitted effect of over 60% in size
Conditions: Drosophila S2 Gal4-RORgamma UAS-luciferase reporter, 20 h; series mostly up to 53.6 µM
Hit rate of the full screen: of about 310,000 compounds, about 17,000 (5.5%) were called active. Roughly 11% stayed inconclusive and do not appear here. Calls follow the shape of the dose curve; as a rule, active = well fitted inhibition curve with a large enough effect; inconclusive = small, poorly fitted or top-dose-only effect, or effect the other way; inactive = no such curve, though single readings can be large or run the other way. The entries come from a sample that favours actives as a whole.
Outcome codes: active, inactive

{"columns": ["Compound", "Group label"],
 "data": [
  ["CC(=O)Nc1cccc(-c2csc(Nc3cccc(C)n3)n2)c1", "inactive"],
  ["Cc1ccc(CS(=O)(=O)c2ncc(Cl)c(C(=O)Nc3nnc(C)s3)n2)cc1", "active"],
  ["CCn1c(=N)n(CC(=O)c2cccc(OC)c2)c2ccccc21", "active"],
  ["O=C(NCCCn1ccnc1)Nc1ccc(Cl)cc1Cl", "inactive"],
  ["CC(C)(C)c1ccc(/C=C/C(=O)NCCCn2ccnc2)cc1", "inactive"],
  ["O=C(NCc1ccco1)/C(=C/c1cccc([N+](=O)[O-])c1)NC(=O)c1ccco1", "inactive"],
  ["CC1(C(=O)O)CCC(C(=O)Nc2ccc(Cl)c(Cl)c2)C1(C)C (centres undefined)", "inactive"],
  ["COc1ccc(CSc2nnnn2-c2ccc(O)cc2)cc1F", "inactive"],
  ["CCOC(=O)c1cc2ccccc2n1CC(=O)c1ccccc1", "inactive"],
  ["CCCc1cc(=O)oc2c(C)c(OC(C)C(=O)NCC(O)c3ccccc3)ccc12 (centres undefined)", "inactive"],
  ["Cn1c(=O)n(C)c2cc(C(=O)Nc3ccc(Br)cc3)ccc21", "inactive"],
  ["CCCOc1ccc(Cc2c(O)nc(N)[nH]c2=O)cc1C", "inactive"],
  ["CCOc1ccccc1NC(=O)CCc1nnc2ccc(NCc3ccco3)nn12", "inactive"],
  ["Cc1cccc(N2CCN(S(=O)(=O)c3ccc(-c4cc(C)no4)s3)CC2C)c1 (centres undefined)", "inactive"],
  ["CC(=O)Nc1ccc(-c2nc3ccccc3o2)cc1", "inactive"],
  ["COc1ccc(-c2csc(NC3OC(=O)c4ccccc43)n2)cc1 (centres undefined)", "inactive"],
  ["COCCCNC(=O)/C(C#N)=C/c1c(N2CCCCCC2)nc2ccccn2c1=O", "inactive"],
  ["CC(O)CNCCOc1cccc(Oc2ccccc2)c1 (centres undefined)", "inactive"],
  ["Cc1ccc2nc(-c3ccc(NC(=O)c4cccnc4)cc3)oc2c1", "active"],
  ["Cc1cccc(CS(=O)(=O)c2ncc(Cl)c(C(=O)Nc3ccc(F)cc3)n2)c1", "active"],
  ["CCOC(=O)CNc1nc(Cl)nc(Nc2ccc(OC)cc2OC)n1", "inactive"],
  ["O=C(CCc1nnc2ccc(NCCCN3CCCC3=O)nn12)NCc1ccccc1Cl", "inactive"],
  ["CN(CC(=O)Nc1c(Cl)cccc1Cl)C(=O)CNC(=O)C1CCCCC1", "inactive"],
  ["COc1ccc2cc(C(=O)O)n(CC(=O)c3ccccc3)c2c1", "inactive"],
  ["Cc1cc(C)cc(NC(=O)C2CCCN2S(=O)(=O)c2cccc3cccnc23)c1 (centres undefined)", "inactive"],
  ["COc1ccccc1CN(C)C(=O)c1cc2ccccc2o1", "inactive"],
  ["CN1CCN(c2ccc(NC(=O)c3ccc4c(c3)[nH]c(=O)n4Cc3ccc(F)cc3)cc2)CC1", "inactive"],
  ["CC(=O)NS(=O)(=O)c1ccc(N/C(N)=N/c2nc(C)cc(C)n2)cc1", "inactive"],
  ["Cc1ccc(CN(Cc2cccnc2)C(=S)Nc2cccc(Cl)c2C)cc1", "active"],
  ["CN1C(=O)CN2CCc3ccccc3C2c2cc(Cl)ccc21 (centres undefined)", "inactive"],
  ["Cc1cccc(Nc2nc(-c3ccccc3)cs2)n1", "active"],
  ["COC(=O)c1sccc1NC(=O)c1ccc(Cl)cc1", "inactive"],
  ["Clc1ccc(C(Cn2ccnc2)OCc2ccsc2Cl)c(Cl)c1 (centres undefined)", "active"],
  ["Cc1ccc(CN(Cc2cccnc2)C(=S)Nc2cc(Cl)ccc2C)cc1", "active"],
  ["CCc1ccc(-c2cc(C)no2)cc1S(=O)(=O)NCCc1ccc(S(N)(=O)=O)cc1", "inactive"],
  ["Cc1ccc(C)c2[nH]c(=O)c(CN(Cc3cccnc3)C(=S)NCc3ccco3)cc12", "inactive"],
  ["COc1cccc(N2CCN(c3ccc4nnc(CCC(=O)N5CCN(C)CC5)n4n3)CC2)c1", "inactive"],
  ["COc1ccc2[nH]c(=O)c(CN(Cc3cccnc3)S(=O)(=O)c3ccccc3F)cc2c1", "inactive"],
  ["Cc1ccc(C)c(S(=O)(=O)N2CCCOC2CNC(=O)C(=O)NC2CCCCC2)c1 (centres undefined)", "inactive"],
  ["COCCCN1C(=O)c2ccc(C(=O)OCC(=O)NCc3ccccc3OC)cc2C1=O", "inactive"],
  ["Cc1ccc(C)c(NC(=S)NCC(c2cccnc2)N2CCOCC2)c1 (centres undefined)", "inactive"],
  ["Cc1ccc(Cl)cc1NC(=S)N(CCN(C)C)Cc1cccs1", "active"],
  ["COC(=O)c1ccc2c(=O)n(CCN3CCOCC3)c(SCC(=O)Nc3cccc(OC)c3)nc2c1", "inactive"],
  ["Cc1ccc(CN2CCC(n3nccc3NC(=O)CCCc3ccccc3)CC2)o1", "inactive"]
]}
